- test-target: UniProt Q9UKP6
- Sequence (Q9UKP6 whole entry): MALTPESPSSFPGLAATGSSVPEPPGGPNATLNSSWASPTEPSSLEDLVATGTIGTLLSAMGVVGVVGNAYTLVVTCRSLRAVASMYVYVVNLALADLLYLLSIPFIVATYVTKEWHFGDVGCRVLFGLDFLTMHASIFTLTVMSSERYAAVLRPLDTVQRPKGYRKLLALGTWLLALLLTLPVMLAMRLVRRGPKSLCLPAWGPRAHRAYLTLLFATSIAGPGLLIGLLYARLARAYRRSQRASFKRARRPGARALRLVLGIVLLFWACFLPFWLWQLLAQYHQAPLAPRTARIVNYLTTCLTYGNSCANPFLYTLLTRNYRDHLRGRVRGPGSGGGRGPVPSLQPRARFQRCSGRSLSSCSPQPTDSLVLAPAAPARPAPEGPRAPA
- assay-text: Displacement of [125I]-U2 from human recombinant urotensin2 receptor expressed in human Chem-2 cells after 4 hrs by scintillation proximity assay
- Format: cell-based
endpoint-label: pIC50
Scale for pIC50: -log10 of concentration given in mol/L; no unit attached.

Field: example entries. Status: answers known.
compound | pIC50
CN(C)CCOc1cc(NCc2ccccc2C(F)(F)F)ccc1Cl | 6.28
CN1CC[C@H](Oc2cc(NCc3cc4c(cc3Br)OCO4)ccc2C(F)(F)F)C1 | 6.35
COc1cc(Br)c(CNc2ccc(Cl)c(O[C@@H]3CCN(C)C3)c2)cc1OC | 6.63

-- ask What does the data say about its pIC50? Entry: COc1cc(Br)c(CNc2ccc(C(F)(F)F)c(O[C@H]3CCN(C)C3)c2)cc1OC
-- reply 6.66

-- ask What about COc1cc(Br)c([S+]([O-])Cc2ccc(Cl)c(O[C@@H]3CCN(C)C3)c2)cc1OC (stereo partly specified) ?
-- reply 6.61

-- ask What about COc1cc(Br)c(S(=O)(=O)Nc2ccc(C(F)(F)F)c(OCCN3CCN(C)CC3)c2)cc1OC ?
-- reply 6.08

-- ask What about COc1cc(Br)c(CNc2ccc(Cl)c(O[C@H]3CCN(C)C3)c2)cc1OC ?
-- reply 5.87

-- ask What about COc1cc(Br)c(S(=O)(=O)Nc2ccc(C(F)(F)F)c(OC[C@@H]3CCCN3C)c2)cc1OC ?
-- reply 5.68

-- ask What about COc1cc(Br)c(S(=O)(=O)Nc2ccc(C(F)(F)F)c(OCCN3CCOCC3)c2)cc1OC ?
-- reply 5.21

-- ask What about COc1cc(Br)c(SCc2ccc(Cl)c(O[C@@H]3CCN(C)C3)c2)cc1OC ?
-- reply 6.36

-- ask What about COc1cc(Br)c(CNc2ccc(Cl)c(OCCN(C)C)c2)cc1OC ?
-- reply 5.92
